B1: PEX5 peptide 238-253 (Peroxisomal targeting signal 1 receptor), 16-mer library wild type / PEX14 Pex14 (PEX14 PEX14, residues 16-84) (parent)
chain 1: AQAEQWAAEFIQQQGT
chain 2: TPGSENVLPREPLIATAVKFLQNSRVRQSPLATRRAFLKKKGLTDEEIDMAFQQSGTAADEPSSLGPAT

Variants of: B1
MEASUREMENT_NOTES: proteomic peptide phage display deep mutational scan (ProP-PD DMS): M13 P8 16-mer library selected against immobilised GST-tagged bait for four days (rounds), NGS of the eluted pools per day and pseudo-replica
DETAILS: with PEX14 Pex14 (PEX14 PEX14, residues 16-84); bait immobilised on MaxiSorp plates (10 µg), library pre-cleared on GST, 2 h binding at 4 °C, five washes; one round per day, days 1-4; value from days 2 and 3; keep out of graded; scale: average fractional NGS count over selection days 2 and 3
Note to self: class labels come from recorded screen value, ranges listed here: lowest = under 0.0002, middle = from 0.0002 up to 0.0008, highest = 0.0008 and over

VARIANT_IDENTIFIER	LABEL_VALUE
chain 1 A8M	highest
chain 1 Q14S	highest
chain 1 Q13T	middle
chain 1 T16G	lowest
chain 1 T16A	middle
chain 1 A8G	highest
chain 1 I11P	highest
chain 1 G15W	middle
chain 1 A7L	highest
chain 1 Q12W	middle
chain 1 Q14E	lowest
chain 1 A8P	lowest
chain 1 Q13H	lowest
chain 1 I11V	lowest
chain 1 E9I	lowest
chain 1 Q5N	lowest
chain 1 I11Q	highest
chain 1 E9H	highest
chain 1 Q14H	middle
chain 1 Q2S	middle
chain 1 Q12G	middle
chain 1 I11W	lowest
chain 1 A3P	lowest
chain 1 Q13R	highest
chain 1 Q12K	middle
chain 1 W6F	highest
chain 1 A3L	lowest
chain 1 Q2N	lowest
chain 1 E4M	highest
chain 1 Q13D	lowest
chain 1 E9K	highest
chain 1 Q5E	lowest
chain 1 F10H	highest
chain 1 E4V	lowest
chain 1 E4G	highest
chain 1 E9S	middle
chain 1 T16D	lowest
chain 1 A8R	middle
chain 1 F10S	lowest
chain 1 A8V	highest
chain 1 Q13M	middle
chain 1 I11G	middle
chain 1 Q12M	highest
chain 1 Q13G	middle
chain 1 Q12R	lowest
chain 1 E9G	lowest
